# TARGET UNDER TEST: T1, human CD80-murine Ig fusion protein (human)
# T1 construct: Bought (Ancell #510-820); also called hCD80-mIg; human CD80-murine IgG
# T1 chain: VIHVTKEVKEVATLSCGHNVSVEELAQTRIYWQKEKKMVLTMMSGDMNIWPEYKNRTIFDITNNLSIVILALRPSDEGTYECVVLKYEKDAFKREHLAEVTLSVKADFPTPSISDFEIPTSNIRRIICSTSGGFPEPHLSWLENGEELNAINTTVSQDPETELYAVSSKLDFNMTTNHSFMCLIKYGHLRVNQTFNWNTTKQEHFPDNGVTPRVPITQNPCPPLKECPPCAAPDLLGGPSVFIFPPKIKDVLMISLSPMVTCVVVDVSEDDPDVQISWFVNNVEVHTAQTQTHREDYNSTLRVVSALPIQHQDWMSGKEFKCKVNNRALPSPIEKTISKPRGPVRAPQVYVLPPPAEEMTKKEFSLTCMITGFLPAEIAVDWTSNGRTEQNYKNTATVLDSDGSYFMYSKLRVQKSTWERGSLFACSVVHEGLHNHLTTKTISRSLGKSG
# METHOD DESCRIPTION: SPR Biacore, hCD80-mIg captured

>  <BINDER>
D3-23-IgG2 (Fc fusion) MHVAQPAVVLASSRGIASFVCEYESPGKANEIRVTVLRQADSQVTEVCAMTYMKGNELTFLDDPSCTGTFSGNQVNLTIQGLRAADTGLYICKVELMYPPPYYLGFGNGTQIYVIDPEPCPDSDERKCCVECPPCPAPPVAGPSVFLFPPKPKDTLMISRTPEVTCVVVDVSHEDPEVQFNWYVDGVEVHNAKTKPREEQFNSTFRVVSVLTVVHQDWLNGKEYKCKVSNKGLPAPIEKTISKTKGQPREPQVYTLPPSREEMTKNQVSLTCLVKGFYPSDIAVEWESNGQPENNYKTTPPMLDSDGSFFLYSKLTVDKSRWQQGNVFSCSVMHEALHNHYTQKSLSLSPG

>  <Kd>
0.439 to 1.75 nM

$$$$
